System: HT29 colon cancer cells
Assay Info: Cell growth inhibition, Sulforhodamine B assay, HT29
Format: cell-based
Experimental Conditions: Homo sapiens, HT-29, 120 h, 5 days culture, SRB assay, read-out: Cell Line GI50 Range HT29
Attribute: GI50

# Compound, Target Under Test, Measure Name, Recorded Value
rows = [
    ("C[C@@H](NC(=O)c1ccc2[nH]nc(-c3ccc(N4CCOCC4)cc3)c2c1)c1cccs1", "HT29 colon cancer cells", "GI50", "≤ 5 µM"),
]

Q: Give its GI50 value. Item: O=C(Nc1ccc2[nH]nc(-c3ccc(NC4CCCC4)cc3)c2c1)C(c1ccsc1)N1CCCC1 (stereo not drawn)
Ans: ≤ 5 µM

Q: Give its GI50 value. Item: CN1CCC(Oc2ccc(-c3n[nH]c4ccc(C(=O)N[C@@H]5CCCc6ccccc65)cc34)cc2)CC1
Ans: ≤ 5 µM

Q: Give its GI50 value. Item: CN1CCN(C(=O)c2cccc(-c3n[nH]c4ccc(NC(=O)C(c5ccsc5)N5CCCC5)cc34)c2)CC1 (stereo not drawn)
Ans: 5 to 20 µM

---

Observed IC50, system Aurora B (Homo sapiens, UniProt Q96GD4).

# Compound, IC50
data = [
    ("CN1CCC(Oc2ccc(-c3n[nH]c4ccc(C(=O)NC(c5ccccc5)C5CC5)cc34)cc2)CC1 (stereo not shown) [Example A24]", "≤ 5 µM"),
    ("O=C(Nc1ccc2[nH]nc(-c3ccc(N4CC(O)C4)cc3)c2c1)C(c1ccsc1)N1CCCC1 (stereo not shown) [Example A120]", "≤ 5 µM"),
    ("CN(C)CC(=O)N1CCC(Oc2ccc(-c3n[nH]c4ccc(C(=O)NC(c5ccccc5)C5CC5)cc34)cc2)CC1 (stereo not shown) [Example A130]", "≤ 5 µM"),
    ("COc1cc(-c2n[nH]c3ccc(NC(=O)C(c4ccsc4)N4CCCC4)cc23)ccc1N1CCN(C)CC1 (stereo not shown) [Example A10]", "≤ 5 µM"),
    ("CN1CCC(Oc2ccc(-c3n[nH]c4ccc(C(=O)N[C@H](c5sccc5Cl)C5CC5)cc34)cc2)CC1 [Example A167]", "≤ 5 µM"),
]

Q: Lookup: IC50 / Aurora B (Homo sapiens, UniProt Q96GD4) / CN1CCC(Nc2ccc(-c3n[nH]c4ccc(NC(=O)C(c5ccsc5)N5CCCC5)cc34)cc2)CC1 (stereo not shown) [Example A25]
Ans: ≤ 5 µM

Q: Lookup: IC50 / Aurora B (Homo sapiens, UniProt Q96GD4) / O=C(Nc1ccc2[nH]nc(-c3ccc(N4CCC(O)CC4)cc3)c2c1)C(c1ccccc1)C1CC1 (stereo not shown) [Example A103]
Ans: ≤ 5 µM

---

Attribute: pIC50
Target Under Test: human PLK4 (Homo sapiens)
Construct: amino terminal GST fusion of residues 1-391 of human PLK4; made in house; host or cells: E. coli
Sequence (O00444 1-391): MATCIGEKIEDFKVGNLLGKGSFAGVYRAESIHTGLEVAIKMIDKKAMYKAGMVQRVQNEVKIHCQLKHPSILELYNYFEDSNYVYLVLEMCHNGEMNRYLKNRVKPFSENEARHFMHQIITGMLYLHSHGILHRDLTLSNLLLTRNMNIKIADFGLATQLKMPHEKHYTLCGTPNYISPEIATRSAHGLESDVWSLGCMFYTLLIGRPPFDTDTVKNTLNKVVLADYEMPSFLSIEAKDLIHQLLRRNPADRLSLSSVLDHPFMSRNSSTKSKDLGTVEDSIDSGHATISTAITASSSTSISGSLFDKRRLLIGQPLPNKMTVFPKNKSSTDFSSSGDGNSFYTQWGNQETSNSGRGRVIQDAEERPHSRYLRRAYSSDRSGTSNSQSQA
Assay Info: PLK4 inhibition assay (indirect ELISA)
Assay type: biochemical
Experimental Conditions: GST-PLK4 4 nM, 15 μM ATP; read-out: IC50 Ranges PLK4
pIC50: −log10 of the molar value.

Before answering, review these 5 worked examples.
# Molecule, Recorded Value
records = [
    ("CN1CCC(Oc2ccc(-c3n[nH]c4ccc(C(=O)N[C@H](CCO)c5ccccc5)cc34)cc2)CC1", "≥ 5.30"),
    ("CN1CCC(Oc2ccc(-c3n[nH]c4ccc(C(=O)NC(c5ccccc5)C5CCCCC5)cc34)cc2)CC1 (centres unmarked)", "≥ 5.30"),
    ("COc1cc(-c2n[nH]c3ccc(C(=O)NC(c4ccccn4)C4CC4)cc23)ccc1OC1CCN(C=O)CC1 (centres unmarked)", "≥ 5.30"),
    ("O=C(Nc1ccc2[nH]nc(-c3ccc(N4CCOCC4)cc3)c2c1)Nc1ccccc1Cl", "≥ 5.30"),
    ("CN1[C@@H]2CC[C@H]1C[C@@H](Oc1ccc(-c3n[nH]c4ccc(C(=O)NC(c5ccccc5)C5CC5)cc34)cc1)C2 (some centres unmarked)", "≥ 5.30"),
]

Q: Give its pIC50 value. Item: O=C(Nc1ccc2[nH]nc(-c3ccc(CCN4CCOCC4)cc3)c2c1)C(c1ccsc1)N1CCCC1 (centres unmarked)
Ans: ≥ 5.30

---

Target Under Test: human TTK (Homo sapiens)
Construct: amino terminal GST fusion of full length human TTK
Sequence (P33981 1-857): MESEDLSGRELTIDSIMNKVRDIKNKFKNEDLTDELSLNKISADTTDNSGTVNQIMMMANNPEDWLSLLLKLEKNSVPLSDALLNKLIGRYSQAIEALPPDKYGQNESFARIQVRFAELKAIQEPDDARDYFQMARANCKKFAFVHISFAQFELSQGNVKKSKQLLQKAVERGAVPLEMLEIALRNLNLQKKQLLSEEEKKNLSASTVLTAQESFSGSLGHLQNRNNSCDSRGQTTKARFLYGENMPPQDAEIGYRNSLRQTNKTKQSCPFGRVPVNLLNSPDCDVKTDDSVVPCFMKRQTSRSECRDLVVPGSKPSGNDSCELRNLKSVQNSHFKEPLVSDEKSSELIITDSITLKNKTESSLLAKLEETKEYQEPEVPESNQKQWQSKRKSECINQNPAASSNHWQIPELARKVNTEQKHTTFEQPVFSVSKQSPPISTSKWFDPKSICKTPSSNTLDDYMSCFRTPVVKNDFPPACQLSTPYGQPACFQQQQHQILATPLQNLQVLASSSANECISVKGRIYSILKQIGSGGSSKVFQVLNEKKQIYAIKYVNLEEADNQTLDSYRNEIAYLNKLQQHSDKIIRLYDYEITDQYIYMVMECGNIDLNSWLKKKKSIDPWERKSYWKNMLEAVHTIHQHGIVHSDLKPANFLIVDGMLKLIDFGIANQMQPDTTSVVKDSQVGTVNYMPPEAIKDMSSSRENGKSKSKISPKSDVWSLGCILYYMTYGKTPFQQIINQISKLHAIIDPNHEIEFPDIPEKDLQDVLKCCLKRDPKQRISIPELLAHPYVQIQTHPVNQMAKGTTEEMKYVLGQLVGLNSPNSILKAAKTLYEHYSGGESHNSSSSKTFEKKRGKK
Assay Info: TTK inhibition assay (indirect ELISA)
Experimental Conditions: GST-TTK 0.68 nM, 16 μM ATP; read-out: IC50 Ranges TTK
Measure Name: IC50

# Molecule, Recorded Value
data = [
    ("CN1CCC(Oc2ccc(-c3n[nH]c4ccc(NC(=O)C(OC5CCCC5)c5ccccc5)cc34)cc2)CC1 (stereo not drawn)", "≤ 5 µM"),
    ("CN(C)CCOc1ccc(-c2n[nH]c3ccc(NC(=O)C(c4ccsc4)N4CCCC4)cc23)cc1 (stereo not drawn)", "≤ 5 µM"),
    ("O=CN1CCC(Oc2ccc(-c3n[nH]c4ccc(NC(=O)C(c5ccccn5)C5CCCC5)cc34)cc2)CC1 (stereo not drawn)", "≤ 5 µM"),
    ("O=C(Nc1ccc2[nH]nc(-c3ccc(OC4CCN(C5COC5)CC4)cc3)c2c1)C(c1ccsc1)N1CCCC1 (stereo not drawn)", "≤ 5 µM"),
    ("COc1cc(-c2n[nH]c3ccc(C(=O)NC(c4ccccc4)C4CC4)cc23)ccc1OC1CCN(C=O)CC1 (stereo not drawn)", "≤ 5 µM"),
    ("C[C@@H](NC(=O)c1ccc2[nH]nc(-c3ccc(OC4CCN(C)CC4)cc3)c2c1)c1cccs1", "≤ 5 µM"),
    ("O=C(N[C@@H](c1ccccc1)C1CC1)c1ccc2[nH]nc(-c3ccc(N4CCOCC4)cc3)c2c1", "≤ 5 µM"),
    ("COCCN1CCC(Oc2ccc(-c3n[nH]c4ccc(NC(=O)[C@H](OC)c5ccccc5)cc34)cc2)CC1", "≤ 5 µM"),
    ("O=C(NC(c1ccccc1)C1CC1)c1ccc2[nH]nc(-c3ccc(N4CCOCC4)cc3)c2c1 (stereo not drawn)", "≤ 5 µM"),
    ("CO[C@@H](C(=O)Nc1ccc2[nH]nc(-c3ccc(OC4CCN(C)CC4)cc3)c2c1)c1ccccc1", "≤ 5 µM"),
]

Q: Give its IC50 value. Item: CCC(NC(=O)c1ccc2[nH]nc(-c3ccc(OC4CCN(C)CC4)cc3)c2c1)C1CCCCC1 (stereo not drawn)
Ans: ≤ 5 µM

Q: Give its IC50 value. Item: O=C(Nc1ccc2[nH]nc(-c3ccc(NC4CCC(O)CC4)cc3)c2c1)C(c1ccsc1)N1CCCC1 (stereo not drawn)
Ans: ≤ 5 µM

Q: Give its IC50 value. Item: CCN(C(=O)Nc1ccc2[nH]nc(-c3ccc(N4CCOCC4)cc3)c2c1)c1ccccc1
Ans: ≤ 5 µM

Q: Give its IC50 value. Item: CCc1cccc(CC)c1NC(=O)Nc1ccc2[nH]nc(-c3ccc(N4CCOCC4)cc3)c2c1
Ans: ≤ 5 µM

Q: Give its IC50 value. Item: O=C(Nc1ccc2[nH]nc(-c3ccc(N4CCOCC4)cc3)c2c1)C(c1ccsc1)N1CCCC1 (stereo not drawn)
Ans: ≤ 5 µM
